- system name: GABA transporter 2 (Mus musculus)
- assay protocol: Inhibition of [3H]GABA uptake at mouse GAT2 expressed in HEK cells assessed as remaining [3H]GABA uptake at 100 uM relative to control
- Assay type: cell-based
- condition: HEK293
So I've got a bunch of molecules here, and I need their Activity values.
Express your answer in %, writing the number without its unit.

Exercise: Tell me the measured Activity of Oc1c(F)cc(CNCCC=C(c2ccccc2)c2ccccc2)cc1F , please.
Solution: 82

Exercise: Same for COc1ccc(C(OCCNCc2ccc(F)c(O)c2F)(c2ccc(OC)cc2)c2ccc(OC)cc2)cc1
Solution: 54

Exercise: Same for COc1ccc(C(OCCNCc2c(F)cc(F)c(O)c2F)(c2ccc(OC)cc2)c2ccc(OC)cc2)cc1
Solution: 89

Exercise: Same for COc1ccc(C(OCCN2CCC[C@H](C(=O)O)C2)(c2ccc(OC)cc2)c2ccc(OC)cc2)cc1
Solution: 56

Exercise: Same for Cc1ccsc1C(=CCCN1CCC[C@@H](C(=O)O)C1)c1sccc1C
Solution: 52

Exercise: Same for COc1ccc(C(OCCNCc2cc(F)c(O)c(F)c2)(c2ccc(OC)cc2)c2ccc(OC)cc2)cc1
Solution: 64

* * *

- system name: UniProt:P31650
- Sequence (P31650 whole entry): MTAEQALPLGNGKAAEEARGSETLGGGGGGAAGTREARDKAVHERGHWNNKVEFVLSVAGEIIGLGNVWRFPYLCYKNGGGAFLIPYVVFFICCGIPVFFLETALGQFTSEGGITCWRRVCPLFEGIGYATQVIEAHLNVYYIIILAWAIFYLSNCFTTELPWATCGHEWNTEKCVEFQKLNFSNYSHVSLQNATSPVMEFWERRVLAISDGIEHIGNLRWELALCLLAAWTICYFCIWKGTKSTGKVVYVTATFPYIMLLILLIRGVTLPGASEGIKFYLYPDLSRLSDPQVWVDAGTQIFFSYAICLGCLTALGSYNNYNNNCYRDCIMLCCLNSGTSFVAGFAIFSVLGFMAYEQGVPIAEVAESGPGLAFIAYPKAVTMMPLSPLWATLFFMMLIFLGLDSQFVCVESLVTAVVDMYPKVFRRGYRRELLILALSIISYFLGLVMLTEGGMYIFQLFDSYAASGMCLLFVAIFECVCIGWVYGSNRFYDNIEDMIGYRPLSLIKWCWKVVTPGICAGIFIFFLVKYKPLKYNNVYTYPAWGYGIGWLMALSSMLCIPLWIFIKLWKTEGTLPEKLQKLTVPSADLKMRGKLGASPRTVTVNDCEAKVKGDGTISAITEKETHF
- assay protocol: Inhibition of [3H]GABA uptake at mouse GAT4 expressed in HEK cells
# class assignment by measured IC50: bottom end: < 20 µM; midrange: ≥ 20 µM and < 30 µM; top end: ≥ 30 µM

Exercise: The entry to classify is Oc1cccc(CNCCC=C(c2ccccc2)c2ccccc2)c1 ; which class holds it?
Solution: midrange

Exercise: Same for O=C(O)C1=CCCN(CCON=C(c2ccccc2)c2ccccc2)C1
Solution: top end

Exercise: Same for Oc1cccc(CNCCC(c2ccccc2)c2ccccc2)c1
Solution: top end

Exercise: Same for O=C(O)C1=CCCNC1 [GUVACINE]
Solution: midrange

Exercise: Same for COc1ccc(CNCCC=C(c2ccccc2)c2ccccc2)cc1O
Solution: midrange

Exercise: Same for COc1ccc(C(OCCNCc2ccccc2O)(c2ccc(OC)cc2)c2ccc(OC)cc2)cc1
Solution: bottom end

Exercise: Same for O=C(O)C1CCCN(CCC=C(c2ccccc2)c2ccccc2)C1 (centres undefined)
Solution: top end

Exercise: Same for Oc1ccccc1CNCCC(c1ccccc1)c1ccccc1
Solution: midrange

Exercise: Same for Oc1ccccc1CNCCC=C(c1ccccc1)c1ccccc1
Solution: bottom end

Exercise: Same for CCCCCCCCCCCCNCc1ccc(OC)c(O)c1
Solution: bottom end

Exercise: Same for CCCCCCCCCCCCNCc1cccc(O)c1
Solution: midrange

Exercise: Same for COc1ccc(C(OCCNCc2ccc(OC)c(O)c2)(c2ccc(OC)cc2)c2ccc(OC)cc2)cc1
Solution: bottom end

Exercise: Same for COc1ccc(C(OCCNCc2cccc(O)c2)(c2ccc(OC)cc2)c2ccc(OC)cc2)cc1
Solution: bottom end

Exercise: Same for CCCCCCCCCCCCNCc1ccccc1O
Solution: top end

* * *

- system name: GABA transporter 2 (Mus musculus)
- Sequence (P31651 whole entry): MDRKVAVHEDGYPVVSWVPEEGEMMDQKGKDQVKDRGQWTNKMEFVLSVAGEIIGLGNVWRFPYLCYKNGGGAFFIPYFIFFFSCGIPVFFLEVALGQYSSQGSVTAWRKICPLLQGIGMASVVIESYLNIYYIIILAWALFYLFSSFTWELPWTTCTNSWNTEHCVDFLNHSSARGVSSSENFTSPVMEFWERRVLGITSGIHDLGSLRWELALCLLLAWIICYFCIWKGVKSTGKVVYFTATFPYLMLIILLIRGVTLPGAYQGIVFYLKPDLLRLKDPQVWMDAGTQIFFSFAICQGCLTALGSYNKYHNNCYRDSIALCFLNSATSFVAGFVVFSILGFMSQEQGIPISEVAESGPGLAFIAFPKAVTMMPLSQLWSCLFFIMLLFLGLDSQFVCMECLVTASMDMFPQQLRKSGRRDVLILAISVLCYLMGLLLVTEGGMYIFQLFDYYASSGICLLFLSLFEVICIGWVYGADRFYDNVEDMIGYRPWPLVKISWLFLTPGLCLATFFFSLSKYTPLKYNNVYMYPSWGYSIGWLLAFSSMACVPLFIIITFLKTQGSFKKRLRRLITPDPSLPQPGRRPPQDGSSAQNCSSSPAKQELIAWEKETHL
- assay protocol: Inhibition of [3H]GABA uptake at mouse GAT2 expressed in HEK cells
readout type: IC50

Exercise: Tell me the measured IC50 of Oc1cccc(CNCCC=C(c2ccccc2)c2ccccc2)c1 , please.
Solution: 17.8 µM

Exercise: Same for CCCCCCCCCCCCNCc1cccc(O)c1
Solution: 15.1 µM

Exercise: Same for COc1ccc(C(OCCNCc2cccc(O)c2)(c2ccc(OC)cc2)c2ccc(OC)cc2)cc1
Solution: 12.9 µM

Exercise: Same for O=C(O)C1CCCN(CCC=C(c2ccccc2)c2ccccc2)C1 (centres undefined)
Solution: 372 µM

Exercise: Same for Oc1cccc(CNCCC(c2ccccc2)c2ccccc2)c1
Solution: 47.9 µM

Exercise: Same for Oc1ccccc1CNCCC=C(c1ccccc1)c1ccccc1
Solution: 14.5 µM

Exercise: Same for O=C(O)C1=CCCN(CCON=C(c2ccccc2)c2ccccc2)C1
Solution: 631 µM

Exercise: Same for COc1ccc(C(OCCNCc2ccc(OC)c(O)c2)(c2ccc(OC)cc2)c2ccc(OC)cc2)cc1
Solution: 20.9 µM

Exercise: Same for O=C(O)C1=CCCNC1 [GUVACINE]
Solution: 490 µM

Exercise: Same for COc1ccc(C(OCCNCc2ccccc2O)(c2ccc(OC)cc2)c2ccc(OC)cc2)cc1
Solution: 11.7 µM

Exercise: Same for CCCCCCCCCCCCNCc1ccccc1O
Solution: 28.8 µM

Exercise: Same for CCCCCCCCCCCCNCc1ccc(OC)c(O)c1
Solution: 12.6 µM

Exercise: Same for COc1ccc(CNCCC=C(c2ccccc2)c2ccccc2)cc1O
Solution: 19.5 µM

Exercise: Same for Oc1ccccc1CNCCC(c1ccccc1)c1ccccc1
Solution: 18.2 µM
